experiment: galactose survival enhancers in mitochondrial complex I cybrids – cell-based, galactose medium, ATP luminescence, primary screen (AID 1645843);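 note: positive z means more ATP and so rescue of galactose-driven cybrid death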
assayConditions: complex I mutant cybrid cells, 72 h, stronger effect = higher value
I would appreciate it if you labelled entries True when z-score is 0.4 or higher, otherwise False.

Consider the worked cases shown below.
CN(C)CCCN1c2ccccc2Sc2ccccc21: False
NCCCCCC(=O)O: True

Q) Assess whether reported z-score for CCCc1cc(C(N)=S)ccn1 sits at 0.4 or higher.
A) False

Q) Assess whether reported z-score for NCC1CCC(C(=O)Oc2ccc(CCC(=O)O)cc2)CC1 (stereo unspecified) sits at 0.4 or higher.
A) True

Q) Assess whether reported z-score for CCn1cc(C(=O)O)c(=O)c2cc3c(cc21)OCO3 sits at 0.4 or higher.
A) False

Q) Assess whether reported z-score for CN(C)CC[C@@H](c1ccc(Br)cc1)c1ccccn1 sits at 0.4 or higher.
A) False

Q) Assess whether reported z-score for O=C(O)c1ccccc1Nc1cccc(C(F)(F)F)c1 sits at 0.4 or higher.
A) True

Q) Assess whether reported z-score for CCc1oc2ccccc2c1C(=O)c1cc(Br)c(O)c(Br)c1 sits at 0.4 or higher.
A) False

###

experiment: HCT116 colon cancer cell growth inhibition, primary screen, CellTiter-Glo luminescence, NPC library (AID 1117342)
assayConditions: at 20 µM (top of the series)
The source made the active and inactive calls.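 The calls were made as follows: active = compounds that lower survival of HCT116 colon cancer cells in the luminescence readout, no numeric limit stated; inactive = the rest.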
A correct response names exactly one class from active, inactive

Consider the worked cases shown below.
CC(=O)OCC(COC(C)=O)OC(C)=O: inactive
CCC(C)n1ncn(-c2ccc(N3CCN(c4ccc(OC[C@H]5CO[C@](Cn6cncn6)(c6ccc(Cl)cc6Cl)O5)cc4)CC3)cc2)c1=O (some centres undefined): active
COc1cc(C)nc(-n2nc(C)cc2OC)n1: inactive
COc1cc(/C=C/C(=O)CC(=O)/C=C/c2ccc(O)c(OC)c2)ccc1O: inactive
Nc1nc2c(ncn2COC(CO)CO)c(=O)[nH]1: inactive
Nc1ccc(C(=O)NCC(=O)O)cc1: inactive
COc1cc2c(Nc3ccc(Br)cc3F)ncnc2cc1OCC1CCN(C)CC1: inactive
CCCCCCc1ccc(O)cc1O: inactive

Q) Returns: the outcome recorded for CCOC(=O)O[C@]1(C(=O)OCCl)CC[C@H]2[C@@H]3CCC4=CC(=O)C=C[C@]4(C)[C@H]3[C@@H](O)C[C@@]21C in this assay.
A) inactive

Q) Returns: the outcome recorded for CC1(C)O[C@@H]2C[C@H]3[C@@H]4C[C@H](F)C5=CC(=O)C=C[C@]5(C)[C@@]4(F)[C@@H](O)C[C@]3(C)[C@]2(C(=O)CO)O1 in this assay.
A) inactive

Q) Returns: the outcome recorded for COc1cc(N)c(Cl)cc1C(=O)NC1CCN(Cc2ccccc2)CC1 in this assay.
A) inactive

Q) Returns: the outcome recorded for O=C(c1ccc(F)cc1)C1CCN(CCn2c(=O)[nH]c3ccccc3c2=O)CC1 in this assay.
A) active

Q) Returns: the outcome recorded for CN1CCCCC1CCN1c2ccccc2Sc2ccc(S(C)=O)cc21 (centres undefined) in this assay.
A) active

Q) Returns: the outcome recorded for Fc1ccc(C(c2ccc(F)cc2)N2CCN(C/C=C/c3ccccc3)CC2)cc1 in this assay.
A) active

Q) Returns: the outcome recorded for CC(=O)Oc1ccc(C(c2ccc(OC(C)=O)cc2)c2ccccn2)cc1 in this assay.
A) active

Q) Returns: the outcome recorded for CCOC(=O)[C@H](CCc1ccccc1)N[C@@H](C)C(=O)N1[C@H](C(=O)O)C[C@@H]2CCC[C@@H]21 in this assay.
A) inactive

Q) Returns: the outcome recorded for NCCCCCC(=O)O in this assay.
A) inactive

Q) Returns: the outcome recorded for CN(C)c1ccc(C(=C2C=CC(=[N+](C)C)C=C2)c2ccc(N(C)C)cc2)cc1 in this assay.
A) active

Q) Returns: the outcome recorded for O=C1C(=O)c2ccccc2C(O)=C1C1CCC(c2ccc(Cl)cc2)CC1 (centres undefined) in this assay.
A) active

###

experiment: glutamate transport activators, MN-1 cells, MN-1 cell line (AID 1612);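 note: 0% = mean of DMSO vehicle wells on each plate; positive means more glutamate uptake than control and negative means less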
assayConditions: MN-1 motor neuron cells, stronger effect = higher value
propertyMeasured: glutamate uptake change (%)
Numeric answer only, unit % assumed.

Example cases with answers are listed next.
CCCCCCc1ccc(O)cc1O: 15.5
NCC1CCC(C(=O)O)CC1 (stereo not given): 10.5
Cc1cc(CC(=O)O)n(C)c1C(=O)c1ccc(Cl)cc1: -4.24
C#CCN(C)Cc1ccccc1: -1.37
CN(C)c1ccc(C(=C2C=CC(=[N+](C)C)C=C2)c2ccc(N(C)C)cc2)cc1: -15.7

Lab note: NS(=O)(=O)c1cc2c(cc1Cl)NC(C(Cl)Cl)NS2(=O)=O (stereo not given) gave glutamate uptake change of -0.6

Lab note: CO[C@@]1(NC(=O)C(C(=O)O)c2ccc(O)cc2)C(=O)N2C(C(=O)O)=C(CSc3nnnn3C)CO[C@@H]21 (stereo not given in full) gave glutamate uptake change of 0.13

Lab note: CCN(CC)CCOc1ccc(/C(=C(\Cl)c2ccccc2)c2ccccc2)cc1 gave glutamate uptake change of -0.41

Lab note: Nc1ccc(S(=O)(=O)Nc2nccs2)cc1 gave glutamate uptake change of 13.7

Lab note: Cc1cc(=O)[nH]c(=S)[nH]1 gave glutamate uptake change of 14.6

###

experiment: P. berghei load reduction in hepatocytes – cell-based, HepG2, luciferase luminescence, HepG2 viability, primary screen (AID 624349);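 note: 100% = mean of DMSO negative control wells on the same plate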
assayConditions: P. berghei liver stage in HepG2, luciferase luminescence, concentration not given here; stronger effect = lower value
As shown below, each of these compounds has a reported parasite load remaining value.
Numeric answer only, unit % assumed.

Example cases with answers are listed next.
CCOc1cc(N)c(Cl)cc1C(=O)NCC1CN(Cc2ccc(F)cc2)CCO1 (stereo unspecified): 29.6
Oc1c(Br)cc(Br)c2cccnc12: 81.4
O=NN(CCCl)C(=O)NCCCl: 30.7

Lab note: O=C(CCCCC(=O)Nc1c(I)cc(I)c(C(=O)O)c1I)Nc1c(I)cc(I)c(C(=O)O)c1I gave parasite load remaining of 81.3

Lab note: CC[N+](C)(C)Cc1ccccc1Br gave parasite load remaining of 80.1

Lab note: O=C(O)CN1C(=O)c2cccc3cccc(c23)C1=O gave parasite load remaining of 30.8

###

Tested on: F380Y/beta1
experiment: BK channel mutant inhibitors and activators – cell-based, U2OS BacMam, thallium flux, beta subunits, selectivity assay, profiling panel (AID 1259406);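 note: initial slope of Thallos dye fluorescence rise after thallium is added; log ratio against the mean of 0.3% DMSO vehicle wells on the same plate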
assayConditions: U2OS BacMam BK variants, at 30 µM
Classification by log fold change Tl+ flux | ranges: lower band = under -0.005, central band = from -0.005 up to 0.03, upper band = 0.03 and over

Consider the worked cases shown below.
CC(=O)O[C@H]1C[C@@H]2CC[C@@H]3[C@H](CC[C@@]4(C)[C@H]3C[C@H]([N+]3(C)CCCCC3)[C@@H]4OC(C)=O)[C@@]2(C)C[C@@H]1N1CCCCC1: central band
CCCOc1ccc(C(=O)OCCN(CC)CC)cc1N: lower band
CC(C(=O)O)c1ccc(CC2CCCC2=O)cc1 (stereo not drawn): lower band
CN1CCC(=C2c3ccccc3CC(=O)c3sccc32)CC1: upper band
Nc1ccn([C@H]2CC[C@@H](CO)O2)c(=O)n1: central band

Q) Which bin, given its log fold change Tl+ flux, does CN1CCN(C2=Nc3cc(F)ccc3Cc3ccccc32)CC1 occupy?
A) upper band

Q) Which bin, given its log fold change Tl+ flux, does CN1CCN(c2c(F)cc3c(=O)c(C(=O)O)cn4c3c2SCC4)CC1 occupy?
A) central band

Q) Which bin, given its log fold change Tl+ flux, does C#C[C@]1(O)CC[C@H]2[C@@H]3CCc4cc(OC)ccc4[C@H]3CC[C@@]21C occupy?
A) lower band

Q) Which bin, given its log fold change Tl+ flux, does CC(C)(C)NC(=O)[C@H]1CC[C@H]2[C@@H]3CC[C@H]4NC(=O)C=C[C@]4(C)[C@H]3CC[C@]12C occupy?
A) central band

Q) Which bin, given its log fold change Tl+ flux, does CN1[C@@H]2CC[C@H]1CC(OC(=O)c1c[nH]c3ccccc13)C2 (stereo partly drawn) occupy?
A) upper band

Q) Which bin, given its log fold change Tl+ flux, does COC(=O)CCc1ccc(OCC(O)CNC(C)C)cc1 (stereo not drawn) occupy?
A) central band

Q) Which bin, given its log fold change Tl+ flux, does C[C@H](NC(CCc1ccccc1)C(=O)O)C(=O)N1CCC[C@H]1C(=O)O (stereo partly drawn) occupy?
A) central band

Q) Which bin, given its log fold change Tl+ flux, does O=C1N(c2ccccc2)c2ccccc2C1(Cc1ccncc1)Cc1ccncc1 occupy?
A) lower band

###

experiment: Wnt pathway potentiators raising nuclear beta-catenin – imaging, WNT3A-conditioned medium, mouse C2C12, NPC library, primary screen (AID 1117326); note: reference of the scale not given here
assayConditions: at 10 µM, stronger effect = higher value
Calls of active or inactive are those of the source. Rule as the data show it: active = nuclear beta-catenin stimulation mostly above about 4.2% (no sharp cut-off); inactive = mostly below about 10%.
propertyMeasured: nuclear beta-catenin stimulation

Example cases with answers are listed next.
COc1ccc(C(=O)c2ccccc2)c(O)c1: 1.5% (inactive)
Cc1ccc(S(=O)(=O)NC(=O)NN2CC3CCCC3C2)cc1 (stereo unspecified): 0.7% (inactive)
OCc1ccccc1O: 0.4% (inactive)
CC1(C)S[C@@H]2[C@H](NC(=O)C(C(=O)O)c3ccccc3)C(=O)N2[C@H]1C(=O)O (stereo partly specified): -0.3% (inactive)
C[N+](C)(C)CCOC(N)=O: -0.5% (inactive)

Continue with the next molecule.
Lab note: O=C(O)c1ccc(S(=O)(=O)N(Cl)Cl)cc1 gave nuclear beta-catenin stimulation of 0.3% (inactive)
